system: MDA-MB-231 breast; experiment: NCI tumour cell line growth inhibition, 48 h
Listing of entries alongside the reported log10 TGI.
Remember, log10 of TGI, in µM.

O=C1C=Cc2cc3ccccc3c3cccc1c23: 1.46
C=CC[n+]1c(/C=C2\Sc3ccccc3N2C)sc(-c2ccccc2)c1-c1ccccc1: 0.48
Cc1cc([C@H](C#N)c2nc3ccccc3s2)nc(Cl)n1: 1.04
NC(=O)NC1=NCCC(=O)N1CCc1c[nH]c2ccccc12: 1.47
COc1cc(OC)cc(-c2n[nH]nc2-c2ccc3c(c2)OCO3)c1: 1.50

Moving on to another molecule below.
Fill in log10 TGI for record "CCSc1sc(-c2ccc(C)cc2)nc1[P+](c1ccccc1)(c1ccccc1)c1ccccc1"
0.06
